# Tested on: HSC4 cells
# PROTOCOL_TEXT: Cell proliferation MTT assay
# Format: cell-based
# PROTOCOL_CONDITIONS: Homo sapiens, HSC-4; HSC4, 48-h treatment; read-out: IC50 cell viability
pIC50: −log10 of the molar value.
METRIC_NAME: pIC50

> print(dat)
                           molecular.string  metric.name  numeric.readout
1  COc1cc(N)cc2c1nc(C(F)F)n2-c1nc(N2CCCOCC2)nc(N2CCOCC2)n1        pIC50             7.30

====

# PROTOCOL_TEXT: Pharmacokinetic study of oral administration
# Assay type: in vivo
# PROTOCOL_CONDITIONS: mouse, blood, BALB/c male mice, 100 mg/kg p.o., read-out: Vz/F
METRIC_NAME: Vd/F (L/kg)

> print(dat)
                                   compound  numeric.readout
1  COc1cc(N)cc2c1nc(C(F)F)n2-c1nc(N2CCCOCC2)nc(N2CCOCC2)n1 [KTC1101]              118
